# Test system: IFN-a/Jak1Tyk2
# protocol-notes: Co-stimulation assay in lysed whole blood: IFNa (JAK1/TYK2) stimulated STAT1 phosphorylation
# Format: cell-based
# condition-description: 20 min, lysed human whole blood, IFNa 100 ng/mL + GM-CSF 10 ng/mL, pSTAT1 by flow cytometry
pIC50: −log10 of the molar value.
experimental-endpoint: pIC50

INSERT INTO results (compound, val) VALUES
  ('CNc1cc(Nc2cccc3c2OCCO3)nc2c(C(=O)NCC(C)(C)O)cnn12', '> 7.00'),
  ('CNc1cc(Nc2cccn(-c3ccc(OC)nn3)c2=O)nc2c(C(=O)NCC(C)(C)CO)cnn12', '6.00 to 7.00'),
  ('CNc1cc(Nc2cccn(-c3cccc(C)n3)c2=O)nc2c(C(=O)NC3CC(C#N)C3)cnn12 (centres unmarked)', '5.00 to 6.00'),
  ('CCOC(=O)c1nn(C)cc1Nc1cc(NC)n2ncc(C(=O)NC3CC3)c2n1', '6.00 to 7.00'),
  ('CNc1cc(Nc2cccc3c2CCCO3)nc2c(C(=O)NCC(C)(C)CO)cnn12', '6.00 to 7.00'),
  ('CNc1cc(Nc2cccc(N3CCOCC3)c2)nc2c(C(=O)NC3CC3)cnn12', '> 7.00'),
  ('CNc1cc(Nc2cccn(-c3ccnc(C)n3)c2=O)nc2c(C(=O)NC3CCC3)cnn12', '> 7.00'),
  ('CNc1cc(Nc2c(F)c(F)cc(F)c2F)nc2c(C(=O)NCC(C)(C)CO)cnn12', '> 7.00'),
  ('[2H]C([2H])([2H])n1cccc(Nc2cc(NC)n3ncc(C(=O)N[C@H]4C[C@H]4F)c3n2)c1=O', '6.00 to 7.00'),
  ('CNc1cc(Nc2cccc3c2OCCO3)nc2c(C(=O)NC3(C#N)CC3)cnn12', '> 7.00'),
  ('CNc1cc(Nc2cccc(C(=O)OC)c2)nc2c(C(=O)NC3CC3)cnn12', '6.00 to 7.00'),
  ('CNc1cc(Nc2cccc3c2OCCO3)nc2c(C(=O)NCC(F)(F)F)cnn12', '6.00 to 7.00'),
  ('CNc1cc(Nc2cc(C(F)(F)F)cnc2OC)nc2c(C(=O)NC3CC3)cnn12', '5.00 to 6.00'),
  ('CNc1cc(Nc2cccc3c2OC(F)(F)O3)nc2c(C(=O)NCC(C)(C)CO)cnn12', '> 7.00'),
  ('CNc1cc(Nc2c(F)c(F)cc(F)c2F)nc2c(C(=O)NC3CC3)cnn12', '> 7.00'),
  ('CNc1cc(Nc2cccc3c2OCCO3)nc2c(C(=O)NCC(C)(C)CO)cnn12', '> 7.00'),
  ('CNc1cc(Nc2cccn(-c3ccc(OC)nn3)c2=O)nc2c(C(=O)NCC(C)(O)CO)cnn12 (centres unmarked)', '< 5.52');

----------
# Tested on: IFN-a/Jak1Tyk2
# protocol-notes: Co-stimulation assay in lysed whole blood: IFNa (JAK1/TYK2) stimulated STAT1 phosphorylation
# Type: cell-based
# condition-description: 20 min, lysed human whole blood, IFNa 100 ng/mL + GM-CSF 10 ng/mL, pSTAT1 by flow cytometry
pIC50: −log10 of the molar value.
Recorded pIC50 values for a group of compounds are listed next.
experimental-endpoint: pIC50

INSERT INTO results (compound, val) VALUES
  ('CNc1cc(Nc2cccc3c2OCCO3)nc2c(C(=O)NCC(C)(O)CO)cnn12 (stereo not shown)', '> 7.00'),
  ('CNc1cc(Nc2cccc3c2OCCC3)nc2c(C(=O)NCC(C)(C)CO)cnn12', '> 7.00'),
  ('CNc1cc(Nc2cccn(-c3ccc(OC)nn3)c2=O)nc2c(C(=O)N[C@@H]3C[C@@H]3F)cnn12', '> 7.00'),
  ('CNc1cc(Nc2cccn(-c3ccc(OC)nn3)c2=O)nc2c(C(=O)NC3CCOC3)cnn12 (stereo not shown)', '6.00 to 7.00'),
  ('CNc1cc(Nc2cc(Cl)ccc2OC(F)(F)F)nc2c(C(=O)NC3CC3)cnn12', '6.00 to 7.00'),
  ('CNc1cc(Nc2cnn(C3CCNC3=O)c2)nc2c(C(=O)NC3CC3)cnn12 (stereo not shown)', '5.00 to 6.00'),
  ('CNc1cc(Nc2cc(Cl)cc3c2OCCO3)nc2c(C(=O)NCC(C)(C)CO)cnn12', '> 7.00'),
  ('CNc1cc(Nc2cccn(-c3ccc(OC)nn3)c2=O)nc2c(C(=O)NC3CC3)cnn12', '> 7.00'),
  ('CNc1cc(Nc2ccccc2OC)nc2c(C(=O)NC3CC3)cnn12', '> 7.00'),
  ('CNc1cc(Nc2cccc3c2OCCO3)nc2c(C(=O)NC3C[C@@H]3F)cnn12 (stereo partly shown)', '> 7.00'),
  ('CNc1cc(Nc2ccccc2OC)nc2c(C(=O)NCC(C)(C)CO)cnn12', '> 7.00'),
  ('CNc1cc(Nc2cccn(-c3ccc(OC)nn3)c2=O)nc2c(C(=O)NCC(F)(F)F)cnn12', '5.00 to 6.00'),
  ('CCOC(=O)c1nscc1Nc1cc(NC)n2ncc(C(=O)NC3CC3)c2n1', '< 6.52'),
  ('[2H]C([2H])([2H])NC(=O)c1cnn2c(NC([2H])([2H])[2H])cc(Nc3cc(F)cc4c3OCCO4)nc12', '6.00 to 7.00'),
  ('[2H]C([2H])([2H])Nc1cc(Nc2cccc3c2OCCO3)nc2c(C(=O)NCC(C)(C)CO)cnn12', '> 7.00'),
  ('CNc1cc(Nc2cccn(C)c2=O)nc2c(C(=O)N[C@H]3C[C@H]3F)cnn12', '> 7.00');

----------
Recorded IC50 values for a group of compounds are listed next.
# System: IFN-a/Jak1Tyk2
# protocol-notes: Co-stimulation assay in lysed whole blood: IFNa (JAK1/TYK2) stimulated STAT1 phosphorylation
# Type: cell-based
# condition-description: 20 min, lysed human whole blood, IFNa 100 ng/mL + GM-CSF 10 ng/mL, pSTAT1 by flow cytometry
experimental-endpoint: IC50

INSERT INTO assay_data (compound, experimental_target, val) VALUES
  ('CNc1cc(Nc2cccc3c2OCCO3)nc2c(C(=O)NC3CC(O)C3)cnn12 (centres unmarked)', 'IFN-a/Jak1Tyk2', '< 100 nM'),
  ('CNc1cc(Nc2cccn(-c3cccc(C)n3)c2=O)nc2c(C(=O)N[C@H]3C[C@H]3F)cnn12', 'IFN-a/Jak1Tyk2', '< 100 nM'),
  ('CNc1cc(Nc2cc(F)cc3c2OCCO3)nc2c(C(=O)NCC(C)(C)CO)cnn12', 'IFN-a/Jak1Tyk2', '< 100 nM'),
  ('CNc1cc(Nc2cccn(-c3ccccn3)c2=O)nc2c(C(=O)N[C@H]3C[C@H]3F)cnn12', 'IFN-a/Jak1Tyk2', '< 100 nM'),
  ('CNC(=O)c1nscc1Nc1cc(NC)n2ncc(C(=O)NC3CC3)c2n1', 'IFN-a/Jak1Tyk2', '< 100 nM'),
  ('[2H]C([2H])([2H])Nc1cc(Nc2cc(F)cc3c2OCCO3)nc2c(C(=O)N[C@H]3C[C@H]3F)cnn12', 'IFN-a/Jak1Tyk2', '< 100 nM'),
  ('CNc1cc(Nc2ccc3c(c2)CN(C)CC3)nc2c(C(=O)NC3CC3)cnn12', 'IFN-a/Jak1Tyk2', '1000 to 10000 nM'),
  ('CNc1cc(Nc2ccn(CC(F)(F)F)n2)nc2c(C(=O)NC3CC3)cnn12', 'IFN-a/Jak1Tyk2', '> 300 nM');

----------
Recorded IC50 values for a group of compounds are listed next.
# Test system: IFN-a/Jak1Tyk2
# protocol-notes: Co-stimulation assay in lysed whole blood: IFNa (JAK1/TYK2) stimulated STAT1 phosphorylation
# Type: cell-based
# condition-description: 20 min, lysed human whole blood, IFNa 100 ng/mL + GM-CSF 10 ng/mL, pSTAT1 by flow cytometry
experimental-endpoint: IC50

INSERT INTO measurements (compound, experimental_endpoint, val) VALUES
  ('[2H]C([2H])([2H])n1cccc(Nc2cc(NC)n3ncc(C(=O)N[C@@H]4C[C@@H]4F)c3n2)c1=O', 'IC50', '< 100 nM'),
  ('CNc1cc(Nc2ccccc2C(=O)OC)nc2c(C(=O)NC3CC3)cnn12', 'IC50', '100 to 1000 nM'),
  ('CCOc1ccc(-n2cccc(Nc3cc(NC)n4ncc(C(=O)NC5CCC5)c4n3)c2=O)nn1', 'IC50', '< 100 nM'),
  ('CNC(=O)c1cnn2c(NC)cc(Nc3cc(F)cc(F)c3OC)nc12', 'IC50', '1000 to 10000 nM'),
  ('CNc1cc(Nc2cccc3c2OCO3)nc2c(C(=O)NCC(C)(C)CO)cnn12', 'IC50', '< 100 nM'),
  ('CNc1cc(Nc2cccn(-c3ccc(OC)nn3)c2=O)nc2c(C(=O)NC3CC(O)C3)cnn12 (centres unmarked)', 'IC50', '100 to 1000 nM'),
  ('CNC(=O)c1cscc1Nc1cc(NC)n2ncc(C(=O)NC3CC3)c2n1', 'IC50', '100 to 1000 nM'),
  ('CNc1cc(Nc2ccc3c(c2)CCN(C)C3)nc2c(C(=O)NC3CC3)cnn12', 'IC50', '1000 to 10000 nM');
